Tested on: LoVo
assay.overview: SRB colorimetric assay of cell growth and viability, LoVo
Type: cell-based, human
test.context: 48 hours exposure, SRB; read-out: LC50 LOVO
quantity: CC50 (nM)
// return numeric value only (unit: nM, not printed)

Give the reported CC50 for this molecule. C/C=C1\NC(=O)[C@H](Cc2ccccc2)NC(=O)[C@@H](C(C)C)NC(=O)[C@@H]([C@@H](C)CC)NC(=O)[C@H](NC(=O)[C@H](NC(=O)[C@H](CCCN)NC(=O)[C@H]2CCCN2C(=O)[C@H](NC(=O)[C@@H](NC(=O)[C@@H](NC(=O)[C@H](NC(=O)CC[C@@H](C)[C@H]2CC[C@H]3[C@@H]4CC[C@@H]5C[C@H](OC(=O)C(F)(F)F)CC[C@]5(C)[C@H]4CC[C@]23C)C(C)C)[C@@H](C)OC(=O)C(F)(F)F)C(C)C)C(C)C)[C@@H](C)CC)[C@@H](C)OC(=O)[C@H](C(C)C)NC1=O [Compound 97] 1090

###

System: SK-BR-3
assay.overview: SRB colorimetric assay of cell growth and viability, SK-BR-3
Assay type: cell-based, human
test.context: 48 hours exposure
Where a SMILES comes first, the peptide text is derived from it. Bridges are numbered along the chain shown (N, C = ends). [ ]: non-standard residue; d: D form. The star is where a group is joined. d(aIle) = CC[C@H](C)[C@@H](N)C(=O)O; d(aThr) = C[C@@H](O)[C@@H](N)C(=O)O; Hexanoyl(5-Me) = CC(C)CCCC(=O)*; Orn = NCCC[C@H](N)C(=O)O; Dhb = C/C=C(\N)C(=O)O
This section presents molecules with their documented LC50 values.
Give the value in µM but do not write µM after it.

Example entries and their recorded answers appear below.
INSERT INTO measurements (molecule, quantity, reported_measurement) VALUES
  ('C/C=C1\NC(=O)[C@H](Cc2ccccc2)NC(=O)[C@@H](C(C)C)NC(=O)[C@@H]([C@@H](C)CC)NC(=O)[C@H](NC(=O)[C@H](NC(=O)[C@H](CCCN)NC(=O)[C@H]2CCCN2C(=O)[C@H](NC(=O)[C@@H](NC(=O)[C@@H](NC(=O)[C@H](NC(=O)CCCC(C)C)C(C)C)C(C)C)C(C)C)C(C)C)[C@@H](C)CC)[C@@H](C)OC(=O)[C@H](C(C)C)NC1=O [Compound 6, [Val^12]-KF] ({Hexanoyl(5-Me)}-[dV]VV[dV][dP][Orn][d(aIle)][d(aThr)][d(aIle)][dV]F[Dhb]V; ester 8-C)', 'LC50', 0.482),
  ('C/C=C1\NC(=O)[C@H](Cc2ccccc2)NC(=O)[C@@H](C(C)C)NC(=O)[C@@H]([C@@H](C)CC)NC(=O)[C@H](NC(=O)[C@H](NC(=O)[C@H](CCCN)NC(=O)[C@H]2CCCN2C(=O)[C@H](NC(=O)CNC(=O)[C@@H](NC(=O)[C@H](NC(=O)CCCC(C)C)C(C)C)[C@@H](C)O)C(C)C)[C@@H](C)CC)[C@@H](C)OC(=O)[C@H](C(C)C)NC1=O [Compound 42, [Gly^11]-KF] ({Hexanoyl(5-Me)}-[dV]TG[dV][dP][Orn][d(aIle)][d(aThr)][d(aIle)][dV]F[Dhb]V; ester 8-C)', 'LC50', 6.96),
  ('C/C=C1\NC(=O)[C@H](Cc2ccccc2)NC(=O)[C@@H](C(C)C)NC(=O)[C@@H]([C@@H](C)CC)NC(=O)[C@H](NC(=O)[C@H](NC(=O)[C@H](CCCN)NC(=O)[C@H]2CCCN2C(=O)[C@H](NC(=O)[C@@H](NC(=O)[C@@H](NC(=O)[C@H](NC(=O)CCCCC(C)=O)C(C)C)[C@@H](C)O)C(C)C)C(C)C)[C@@H](C)CC)[C@@H](C)OC(=O)[C@H](C(C)C)NC1=O [Compound 27, [6-OHep^14]-KF]', 'LC50', 6.7);

// moving on: another record for LC50
Note LC50 for the molecule shown: C/C=C1\NC(=O)[C@H](Cc2ccccc2)NC(=O)[C@@H](C(C)C)NC(=O)[C@@H](C(C)C)NC(=O)[C@H](NC(=O)[C@H](NC(=O)[C@H](CCCN)NC(=O)[C@H]2CCCN2C(=O)[C@H](NC(=O)[C@@H](NC(=O)[C@@H](NC(=O)[C@H](NC(=O)CCCC(C)C)C(C)C)[C@@H](C)O)C(C)C)C(C)C)C(C)C)[C@@H](C)OC(=O)[C@H](C(C)C)NC1=O [Compound 12, [D-Val^5, D-Val^7]-KF] ({Hexanoyl(5-Me)}-[dV]TV[dV][dP][Orn][dV][d(aThr)][dV][dV]F[Dhb]V; ester 8-C) 5.38

###

System: A-549
assay.overview: SRB colorimetric assay of cell growth and viability, A-549
Type: cell-based, human
test.context: 48 hours exposure; read-out: LC50 A-549
Where a SMILES comes first, the peptide text is derived from it. Bridges are numbered along the chain shown (N, C = ends). [ ]: non-standard residue; d: D form. The star is where a group is joined. d(aIle) = CC[C@H](C)[C@@H](N)C(=O)O; d(aThr) = C[C@@H](O)[C@@H](N)C(=O)O; hCha = N[C@@H](CCC1CCCCC1)C(=O)O; Hexanoyl(5-Me) = CC(C)CCCC(=O)*; Myristoyl = CCCCCCCCCCCCCC(=O)*; Orn = NCCC[C@H](N)C(=O)O; Dhb = C/C=C(\N)C(=O)O
With a cut-off of 7 µM, any CC50 strictly below it is called True; any CC50 meeting it or above is called False.

A selection of reference data follows.
INSERT INTO assay_data (molecule, assigned_category) VALUES
  ('C/C=C1\NC(=O)[C@H](Cc2ccccc2)NC(=O)[C@@H](C(C)C)NC(=O)[C@@H]([C@@H](C)CC)NC(=O)[C@H](NC(=O)[C@H](NC(=O)[C@H](CCCN)NC(=O)[C@H]2CCCN2C(=O)[C@H](NC(=O)[C@@H](NC(=O)[C@@H](NC(=O)[C@@H](CCC(N)=O)NC(=O)CCCC(C)C)[C@@H](C)O)C(C)C)C(C)C)[C@@H](C)CC)[C@@H](C)OC(=O)[C@H](C(C)C)NC1=O [Compound 40, [D-Gln^13]-KF]', 'True'),
  ('C/C=C1\NC(=O)[C@H](Cc2ccccc2)NC(=O)[C@@H](C(C)C)NC(=O)[C@@H]([C@@H](C)CC)NC(=O)[C@H](NC(=O)[C@H](NC(=O)[C@H](CCCN)NC(=O)[C@H]2CCCN2C(=O)[C@H](NC(=O)CCCCCCCCCCCCC)C(C)C)[C@@H](C)CC)[C@@H](C)OC(=O)[C@H](C(C)C)NC1=O [Compound 32] (Myristoyl-[dV][dP][Orn][d(aIle)][d(aThr)][d(aIle)][dV]F[Dhb]V; ester 5-C)', 'False'),
  ('C/C=C1\NC(=O)[C@H](Cc2ccccc2)NC(=O)[C@@H](C(C)C)NC(=O)[C@@H]([C@@H](C)CC)NC(=O)[C@H](NC(=O)[C@H](NC(=O)[C@H](CCCN)NC(=O)[C@H]2CCCN2C(=O)[C@H](NC(=O)[C@H](CCC(=O)O)NC(=O)[C@@H](NC(=O)[C@H](NC(=O)CCCC(C)C)C(C)C)[C@@H](C)O)C(C)C)[C@@H](C)CC)[C@@H](C)OC(=O)[C@H](C(C)C)NC1=O [Compound 51, [Glu^11]-KF] ({Hexanoyl(5-Me)}-[dV]TE[dV][dP][Orn][d(aIle)][d(aThr)][d(aIle)][dV]F[Dhb]V; ester 8-C)', 'True'),
  ('C/C=C1\NC(=O)[C@H](Cc2ccccc2)NC(=O)[C@@H](C(C)C)NC(=O)[C@@H]([C@@H](C)CC)NC(=O)[C@H](NC(=O)[C@H](NC(=O)[C@H](CCCN)NC(=O)[C@H]2CCCN2C(=O)[C@H](NC(=O)[C@@H](NC(=O)[C@H](CCC(=O)O)NC(=O)CCCC(C)C)C(C)C)C(C)C)[C@@H](C)CC)[C@@H](C)OC(=O)[C@H](C(C)C)NC1=O [Compound 56, [Glu^12, noD-Val^13]-KF] ({Hexanoyl(5-Me)}-EV[dV][dP][Orn][d(aIle)][d(aThr)][d(aIle)][dV]F[Dhb]V; ester 7-C)', 'False'),
  ('C/C=C1\NC(=O)[C@H](Cc2ccccc2)NC(=O)[C@@H](C(C)C)NC(=O)[C@@H]([C@@H](C)CC)NC(=O)[C@H](NC(=O)[C@H](NC(=O)[C@H](CCCN)NC(=O)[C@H]2CCCN2C(=O)[C@H](NC(=O)[C@@H](NC(=O)[C@@H]2CCCN2C(=O)CCCC(C)C)C(C)C)C(C)C)[C@@H](C)CC)[C@@H](C)OC(=O)[C@H](C(C)C)NC1=O [Compound 55, [Pro^12, noD-Val^13]-KF] ({Hexanoyl(5-Me)}-PV[dV][dP][Orn][d(aIle)][d(aThr)][d(aIle)][dV]F[Dhb]V; ester 7-C)', 'False'),
  ('C/C=C1\NC(=O)[C@H](Cc2ccccc2)NC(=O)[C@@H](C(C)C)NC(=O)[C@@H]([C@@H](C)CC)NC(=O)[C@H](NC(=O)[C@H](NC(=O)[C@H](CCC(=O)O)NC(=O)[C@H]2CCCN2C(=O)[C@H](NC(=O)[C@@H](NC(=O)[C@@H](NC(=O)[C@H](NC(=O)CCCC(C)C)C(C)C)[C@@H](C)O)C(C)C)C(C)C)[C@@H](C)CC)[C@@H](C)OC(=O)[C@H](C(C)C)NC1=O [Compound 4, [Glu^8]-KF] ({Hexanoyl(5-Me)}-[dV]TV[dV][dP]E[d(aIle)][d(aThr)][d(aIle)][dV]F[Dhb]V; ester 8-C)', 'True'),
  ('C/C=C1\NC(=O)[C@H](Cc2ccccc2)NC(=O)[C@@H](C(C)C)NC(=O)[C@@H]([C@@H](C)CC)NC(=O)[C@H](NC(=O)[C@H](NC(=O)[C@H](CCCN)NC(=O)[C@H]2CCCN2C(=O)[C@H](NC(=O)[C@H](CCC2CCCCC2)NC(=O)[C@@H](NC(=O)[C@H](NC(=O)CCCC(C)C)C(C)C)[C@@H](C)O)C(C)C)[C@@H](C)CC)[C@@H](C)OC(=O)[C@H](C(C)C)NC1=O [Compound 9, [hCh^11]-KF] ({Hexanoyl(5-Me)}-[dV]T[hCha][dV][dP][Orn][d(aIle)][d(aThr)][d(aIle)][dV]F[Dhb]V; ester 8-C)', 'True'),
  ('C/C=C1\NC(=O)[C@H](Cc2ccccc2)NC(=O)[C@@H](C(C)C)NC(=O)[C@@H]([C@@H](C)CC)NC(=O)[C@H](NC(=O)[C@H](NC(=O)[C@H](CCCN)NC(=O)[C@H]2CCCN2C(=O)[C@H](NC(=O)CCCC(C)C)C(C)C)[C@@H](C)CC)[C@@H](C)OC(=O)[C@H](C(C)C)NC1=O [Compound 31, [noVal^11, noThr^12, noD-Val^13]-KF] ({Hexanoyl(5-Me)}-[dV][dP][Orn][d(aIle)][d(aThr)][d(aIle)][dV]F[Dhb]V; ester 5-C)', 'False');

Then this molecule:
CC50 strictly < 7 µM for this molecule? C/C=C1\NC(=O)[C@H](Cc2ccccc2)NC(=O)[C@@H](C(C)C)NC(=O)[C@@H]([C@@H](C)CC)NC(=O)[C@H](NC(=O)[C@H](NC(=O)[C@H](CCCCN)NC(=O)[C@H]2CCCN2C(=O)[C@H](NC(=O)[C@@H](NC(=O)[C@@H](NC(=O)[C@H](NC(=O)CC[C@@H](C)CC)C(C)C)[C@@H](C)O)C(C)C)C(C)C)[C@@H](C)CC)[C@@H](C)OC(=O)[C@H](C(C)C)NC1=O [Compound 30, [Lys^8, (4S)-MeHex^14]-KF] True
